src = patent EP0103381B1

# System: lymphocytic leukemia P388
# assay_method_text: in vivo lymphocytic leukemia P388 test
# Set-up: species or system mice
# setup_conditions: Mus musculus, P388, ip, 720 h, P388, Dose 25 mg/kg intraperitoneally, two single doses four days apart; read-out: T/C × 100 (Percent)
recorded_metric: response vs control in vivo at 25 mg/kg

Which response vs control in vivo at 25 mg/kg is listed for `CN(C)CCNCCNc1ccc2c3c(nn2CCN)-c2c(O)ccc(O)c2C(=O)c13` ? 192%

Which response vs control in vivo at 25 mg/kg is listed for `O=C1c2cccc(O)c2-c2nn(CCNCCO)c3ccc(NCCNCCO)c1c23` ? 163%

Which response vs control in vivo at 25 mg/kg is listed for `CCN(CC)CCNc1ccc2c3c(nn2CCNCCO)-c2ccccc2C(=O)c13` ? 149%

Which response vs control in vivo at 25 mg/kg is listed for `CCN(CC)CCn1nc2c3c(c(NCCNCCO)ccc31)C(=O)c1ccccc1-2` ? 197%

Which response vs control in vivo at 25 mg/kg is listed for `NCCCCCNc1ccc2c3c(nn2CCNCCO)-c2c(O)ccc(O)c2C(=O)c13` ? 127%

Which response vs control in vivo at 25 mg/kg is listed for `NCCn1nc2c3c(c(NCCNCCO)ccc31)C(=O)c1c(O)ccc(O)c1-2` ? 257%

Which response vs control in vivo at 25 mg/kg is listed for `NCCNc1ccc2c3c(nn2CCO)-c2c(O)ccc(O)c2C(=O)c13` ? 146%

Which response vs control in vivo at 25 mg/kg is listed for O=C1c2c(O)ccc(O)c2-c2nn(CC(O)CO)c3ccc(NCCNCCO)c1c23 (centres unmarked) ? 184%
